Assay: Half life in rat at 2 to 10 mg/kg, iv bolus
Type: ADME, organism-based
Design: dose 2-10 mg/kg, route intravenous
Conditions: in vivo
Endpoint label: half-life (h)
The reply should be a number in h, with the unit left off.

**Q:** // returns reported half-life for input N[C@H]1CC[C@H](Nc2ncc3nc(Nc4ccc(F)cc4F)n(C4CCCC4)c3n2)CC1
**A:** 17

---

Experiment: Aqueous solubility of the compound at pH 7.4
Format: physicochemical
Endpoint label: solubility (mg/mL)
The reply should be a number in mg/mL, with the unit left off.

**Q:** // returns reported solubility for input COc1ccc(Nc2ncc3nc(Nc4ccccc4F)n(C4CCCC4)c3n2)cc1
**A:** 0.447
